target: Cdc42 (Homo sapiens, UniProt P60953); test: Fluorescence titration of purified Cdc42 with ZCL278 (tryptophan fluorescence); type: binding; settings: emission monitored at 350 nm
Sequence (P60953 whole entry, species assumed): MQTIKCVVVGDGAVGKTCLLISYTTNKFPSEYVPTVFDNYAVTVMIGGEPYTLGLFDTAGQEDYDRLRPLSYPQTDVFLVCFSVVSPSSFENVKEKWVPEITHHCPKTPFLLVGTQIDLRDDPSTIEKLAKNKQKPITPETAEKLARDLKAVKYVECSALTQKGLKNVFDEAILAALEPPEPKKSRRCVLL
MEASURE_NAME: pKd
Just the number, please; pKd means minus log10 of the concentration in mol/L.

Per the records, this compound ( Cc1cc(C)nc(NS(=O)(=O)c2ccc(NC(=S)NC(=O)COc3ccc(Br)cc3Cl)cc2)n1 [ZCL278] ) has pKd equal to 5.19

---

experiment: Solubility determination; assay type: physicochemical
MEASURE_NAME: solubility (µM)
Respond numerically; units are µM and should not be typed.

Per the records, this compound ( `Cc1cc(C)nc(NS(=O)(=O)c2ccc(NC(=S)NC(=O)COc3ccc(Br)cc3Cl)cc2)n1` ) has solubility equal to 181
